Data origin: ChEMBL document CHEMBL4706601

# Assay target: Cannabinoid receptor 2 (Homo sapiens)
# Sequence (P34972 whole entry): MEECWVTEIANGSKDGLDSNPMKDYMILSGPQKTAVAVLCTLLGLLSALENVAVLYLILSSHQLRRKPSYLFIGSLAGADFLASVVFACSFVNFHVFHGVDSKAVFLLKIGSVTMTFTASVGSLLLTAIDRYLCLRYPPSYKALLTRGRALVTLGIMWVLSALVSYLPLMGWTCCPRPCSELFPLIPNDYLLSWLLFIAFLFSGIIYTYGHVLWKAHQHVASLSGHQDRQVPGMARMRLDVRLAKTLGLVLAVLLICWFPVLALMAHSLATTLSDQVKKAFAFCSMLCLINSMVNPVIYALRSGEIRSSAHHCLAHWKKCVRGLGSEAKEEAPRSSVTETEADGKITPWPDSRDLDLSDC
# Protocol summary: Displacement of [3H]CP55940 from recombinant human CB2R expressed in CHO cell membranes incubated for 90 mins
Assign Ki to each entry below.

Each of the following entries comes with a recorded value; kindly state Ki for each.
1. Cc1c(Br)cc(C(=O)NC2CCNCC2)c(=O)n1Cc1ccc(F)cc1
2. CO[C@@H]1O[C@H](CNC(=O)c2cc(Br)c(C)n(Cc3ccc(F)cc3)c2=O)[C@H](O)[C@H](O)[C@H]1O
3. CC(=O)N[C@@H]1[C@@H](O)[C@H](O)[C@@H](CO)O[C@H]1NC(=O)c1cc(Br)c(C)n(Cc2ccc(F)cc2)c1=O

Marked response:
["> 10 µM", "> 10 µM", "> 10 µM"]
